- Target Entity: Recombinant SARS-CoV-2 PLpro (Severe acute respiratory syndrome coronavirus 2)
- Method: biochemical
- Details: FRET, PLpro 1 μM
Observable: IC50

{"Compound": "COc1cccc2c3c([nH]c12)C(=O)c1ccccc1C3=O", "IC50": "191 µM"}
{"Compound": "O=C1c2ccccc2C(=O)c2c1[nH]c1ccccc21 [4a, 5H-Benzo[b]carbazole-6,11-dione]", "IC50": "153 µM"}
{"Compound": "O=C1c2ccccc2C(=O)c2c1[nH]c1c2ccc2ccccc21 [4i, 7H-Dibenzo[a,h]carbazole-7,12(13H)-dione]", "IC50": "149 µM"}

Now consider the entry below.
Exercise: Please indicate recorded IC50 of COc1ccc2[nH]c3c(c2c1)C(=O)c1ccccc1C3=O measured with Recombinant SARS-CoV-2 PLpro (Severe acute respiratory syndrome coronavirus 2).
Solution: 72.1 µM

----------
- Method: In vivo plasma pharmacokinetics in rats
- Details: male, Wistar, rat, in vivo, ip, 5 mg/kg
Observable: Cmax (nM)
Express the result in nM but write the number alone.

Exercise: Give the measured Cmax for O=C1c2ccccc2C(=O)c2c1[nH]c1ccccc21 [4a, 5H-Benzo[b]carbazole-6,11-dione]
Solution: 770

----------
- Target Entity: Recombinant SARS-CoV-2 Mpro (Severe acute respiratory syndrome coronavirus 2, UniProt P0DTD1)
- Method: Protease inhibition FRET assay, Mpro
- Details: Mpro 1.5 μM, substrate 50 μM
Below, each entry is listed alongside its reported pIC50.
In plain terms, pIC50 is the concentration in mol/L turned into minus its base-10 logarithm.

{"Compound": "COc1ccc2[nH]c3c(c2c1)C(=O)c1ccccc1C3=O [4b]", "pIC50": 6.43}

Exercise: Give the measured pIC50 for O=C1c2ccccc2C(=O)c2c1[nH]c1ccccc21 [4a, 5H-Benzo[b]carbazole-6,11-dione]
Solution: 6.96

----------
- Method: In vivo plasma pharmacokinetics in rats
- Details: male, Wistar, plasma, ip; rat, 5 mg/kg i.p.; read-out: t1/2,z (converted)
Observable: half-life
Form entry: enter the amount, then its unit.

Exercise: Give the measured half-life for O=C1c2ccccc2C(=O)c2c1[nH]c1ccccc21 [4a, 5H-Benzo[b]carbazole-6,11-dione]
Solution: 37 h

----------
- Method: In vivo plasma pharmacokinetics in rats
- Details: male, Wistar, plasma, ip; rat, 5 mg/kg i.p.
Observable: CL/F (mL/min/kg)
Express the result in mL/min/kg but write the number alone.

Exercise: Give the measured CL/F for O=C1c2ccccc2C(=O)c2c1[nH]c1ccccc21 [4a, 5H-Benzo[b]carbazole-6,11-dione]
Solution: 31.2

----------
- Method: In vivo plasma pharmacokinetics in rats
- Details: male, Wistar, rat, in vivo, ip, 5 mg/kg
Observable: concentration at 24 h (nM)
Express the result in nM but write the number alone.

Exercise: Give the measured concentration at 24 h for O=C1c2ccccc2C(=O)c2c1[nH]c1ccccc21 [4a, 5H-Benzo[b]carbazole-6,11-dione]
Solution: 120

----------
What follows is a collection of SI (CC50/EC50) values obtained with SARS-CoV-2 B.1 lineage isolate.

// solved cases for SI (CC50/EC50) follow
{"Compound": "O=C1c2ccccc2C(=O)c2c1[nH]c1c2ccc2ccccc21 [4i, 7H-Dibenzo[a,h]carbazole-7,12(13H)-dione]", "Val": ">53.7"}
{"Compound": "COc1cccc2c3c([nH]c12)C(=O)c1ccccc1C3=O", "Val": ">141.8"}
{"Compound": "COc1ccc2[nH]c3c(c2c1)C(=O)c1ccccc1C3=O", "Val": ">119.0"}

Exercise: Please indicate recorded SI (CC50/EC50) of O=C1c2ccccc2C(=O)c2c1[nH]c1ccccc21 [4a, 5H-Benzo[b]carbazole-6,11-dione] measured with SARS-CoV-2 B.1 lineage isolate.
Solution: >266.7

----------
- Method: In vivo plasma pharmacokinetics in rats
- Details: male, Wistar, rat, in vivo, ip, 5 mg/kg
Observable: Tmax
Form entry: enter the amount, then its unit.

Exercise: Give the measured Tmax for O=C1c2ccccc2C(=O)c2c1[nH]c1ccccc21 [4a, 5H-Benzo[b]carbazole-6,11-dione]
Solution: 20 min
